Taken from ChEMBL document CHEMBL4477166.

Kindly state MIC for each of the entries shown.
Test system: Streptomyces scabiei
measurement-protocol: Antibacterial activity against Streptomyces scabiei CGMCC4.7610246 by microdilution assay
Assay type: functional

[
  {
    "molecule": "CC(C)OC(=O)[C@@]1(C)CC[C@]2(C)CC[C@]3(C)C(=CC(=O)[C@@H]4[C@@]5(C)[C@@H](O)[C@H](O)[C@H](O)C(C)(C)[C@@H]5CC[C@]43C)[C@@H]2C1",
    "MIC": "> 34.8 µg/mL"
  },
  {
    "molecule": "CN[C@@H]1[C@H](O[C@H]2[C@H](O[C@H]3[C@H](O)[C@@H](O)[C@H](N=C(N)N)[C@@H](O)[C@@H]3N=C(N)N)O[C@@H](C)[C@]2(O)C=O)O[C@@H](CO)[C@H](O)[C@H]1O [STREPTOMYCIN]",
    "MIC": "5.8 µg/mL"
  }
]

The following molecules each have a reported value; give each one's MIC.
1. CC1(C)C(=O)[C@@H]2O[C@@H]2[C@]2(C)[C@H]3C(=O)C=C4[C@@H]5C[C@@](C)(C(=O)OCc6ccccc6)CC[C@]5(C)CC[C@@]4(C)[C@]3(C)CC[C@@H]12
2. CC1(C)[C@@H](O)[C@@H](O)[C@H](O)[C@]2(C)[C@H]3C(=O)C=C4[C@@H]5C[C@@](C)(C(=O)O)CC[C@]5(C)CC[C@@]4(C)[C@]3(C)CC[C@@H]12
3. CCCCOC(=O)[C@@]1(C)CC[C@]2(C)CC[C@]3(C)C(=CC[C@@H]4[C@@]5(C)[C@@H](O)[C@H](O)[C@H](O)C(C)(C)[C@@H]5CC[C@]43C)[C@@H]2C1
4. CC1(C)[C@@H](O)CC[C@]2(C)[C@H]3CC=C4[C@@H]5C[C@@](C)(C(=O)OCc6ccccc6)CC[C@]5(C)CC[C@@]4(C)[C@]3(C)CC[C@@H]12
5. CC1(C)[C@H](O)[C@@H]2O[C@@H]2[C@]2(C)[C@H]3C(=O)C=C4[C@@H]5C[C@@](C)(C(=O)OCc6ccccc6)CC[C@]5(C)CC[C@@]4(C)[C@]3(C)CC[C@@H]12

["> 50 µg/mL", "> 50 µg/mL", "4.3 µg/mL", "> 50 µg/mL", "36.7 µg/mL"]

Short answer for CC1(C)[C@H](O)[C@@H]2O[C@@H]2[C@]2(C)[C@H]3CC=C4[C@@H]5C[C@@](C)(C(=O)OCc6ccccc6)CC[C@]5(C)CC[C@@]4(C)[C@]3(C)CC[C@@H]12 : MIC was > 50 µg/mL
